Hello, the source for this data is PubChem BioAssay, in case you need it.

experiment: mitochondrial membrane potential change in A549 cells, profiling panel, cell-based, JC-1 fluorescence, basal, 24 h, 100 nL (AID 1138); details: higher = more signal;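 also: A549 lung adenocarcinoma cells under basal conditions with no added stimulus; test concentration not given here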

# molecule, z-score
measured = [
    ("C=CCOC(=O)[C@H]1[C@@H]2C(=O)O[C@@H](c3ccccc3)[C@@H](c3ccccc3)N2[C@@H](c2ccc(OCCOC(=O)[C@H]3C[C@H]4C(=O)N[C@@H](Cc5ccccc5)C(=O)N4[C@H]3c3cccc(OCCO)c3)cc2)[C@]12C(=O)Nc1ccc(I)cc12", -1.41),
    ("O=C1O[C@@H](c2ccccc2)[C@@H](c2ccccc2)N2[C@@H](c3ccc(O)cc3)[C@]3(C(=O)Nc4ccc(C#CCCO)cc43)[C@@H](C(=O)NC[C@H](O)c3ccccc3)[C@H]12", -1.57),
    ("C[C@@H](OCc1ccccc1)C1NC(=O)[C@@]23C(=O)N[C@@H](Cc4ccccc4)C2[C@H](C)[C@@]2(C)O[C@H]2C3/C=C/C/C=C\\CNC(=O)CNC1=O (stereo partly drawn)", -0.777),
    ("CN(C)CCCNC(=O)[C@@]1(c2ccc([N+](=O)[O-])cc2)CC(=O)N(CC23CC4CC(CC(C4)C2)C3)[C@@H]1c1ccc(CO)cc1", 0.742),
    ("CC(C)N1CC=CC23O[C@@H]4C=CCOC(=O)[C@@H]4[C@H]2C(=O)N(C(C)CO)[C@@H]3C1=O (stereo partly drawn)", -0.374),
    ("CN1C2C=C(CCCO)C(C3C(=O)N(C(N)=O)C(=O)C32)C1c1cccs1 (stereo not drawn)", -0.405),
    ("COC(=O)[C@@]1(Cc2ccc(OC)cc2)[C@H]2c3cc(C(=O)N(C)C)n(Cc4ccccc4)c3C[C@H]2CN1C(=O)c1ccccc1", 2.63),
    ("C#CCNC(=O)[C@H](Cc1ccccc1)NC(=O)[C@@H](N=[N+]=[N-])C(C)C", 0.332),
    ("C=CC[C@]1(C(=O)N(C)C)N=C(c2ccc(OCCCO)cc2)O[C@H]1c1ccccc1N=[N+]=[N-]", 1.08),
    ("COCCCNC(=O)[C@@]1(Sc2ccc(C)cc2)CC(=O)N(C2Cc3ccccc3C2)[C@@H]1c1ccc(CO)cc1I", 0.314),
    ("C=C(COC)/C(=C/C[C@@H](OC(=O)c1ccncc1)c1ccc(OCCO)cc1)c1cnc2ccccc2c1", 0.703),
    ("C=CCN1C(=O)[C@]2(CC=C)N=C(c3ccc(OCCCO)cc3)O[C@@H]2c2ccccc21", -0.998),
    ("CC(C)CNC(=O)[C@@]1(c2ccc([N+](=O)[O-])cc2)CC(=O)N(C2CCCCC2)[C@@H]1c1ccc(CO)cc1I", 1.86),
    ("O=C(O)[C@]1(Cc2ccccc2)N=C(c2ccc(OCCCO)cc2)O[C@@H]1c1ccccc1", -0.069),
    ("CCCCN1CC=CC23O[C@@H]4C=CCOC(=O)[C@@H]4[C@H]2C(=O)N(CCCO)[C@@H]3C1=O (stereo partly drawn)", -1.08),
    ("CC(=O)n1cc(C(O)C2C=CC3C(=O)N(c4ccccc4)C(=O)C3N2Nc2ccccc2)c2ccccc21 (stereo not drawn)", -0.282),
    ("O=C1C[C@@](C(=O)NCC(F)(F)F)(c2ccc([N+](=O)[O-])cc2)[C@@H](c2ccc(CO)cc2)N1C1CCCCC1", 0.0267),
    ("O=C1O[C@@H](c2ccccc2)[C@@H](c2ccccc2)N2[C@@H](c3ccc(O)cc3)[C@]3(C(=O)Nc4ccccc43)[C@@H](C(=O)Nc3nc4ccccc4s3)[C@H]12", -2.38),
    ("CO[C@H]1O[C@H](CO)[C@@H](OC(=O)Nc2ccccc2-c2ccccc2)[C@H](OC(=O)Nc2ccc3c(c2)OCO3)[C@@H]1OC(=O)Nc1ccc2c(c1)OCO2", 1.56),
    ("[N-]=[N+]=NCc1ccccc1C[C@@]1(C(=O)NCCN2CCOCC2)N=C(c2ccc(OCCCO)cc2)O[C@@H]1c1ccccc1N=[N+]=[N-]", -0.183),
    ("C=CCN1C(=O)[C@@]2(O[C@@H](CCO)[C@H]([Si](C)(C)c3ccc(OC)cc3)[C@H]2C)c2cc(N3C(=O)c4ccccc4Oc4ccccc43)ccc21", 0.00401),
    ("O=C1O[C@@H](c2ccccc2)[C@@H](c2ccccc2)N2[C@@H](c3ccc(O)cc3)[C@]3(C(=O)Nc4ccc(C#CC5=CCCCC5)cc43)[C@@H](C(=O)N3CCN(c4ncccn4)CC3)[C@H]12", -0.367),
    ("CCCC[C@@H]1C[C@H]1[C@@H](NC(=O)c1cccnc1)c1ccc(-c2ccccc2)cc1", 0.475),
    ("CC(C)(C)OC(=O)CC[C@]1(C(=O)NCCN2CCOCC2)N=C(c2ccc(OCCCO)cc2)O[C@H]1c1ccccc1", 1.21),
    ("CN1C(=O)[C@@]2(CCS(=O)(=O)c3ccccc3)N=C(c3ccc(OCCCO)cc3)O[C@H]2c2ccccc21", 1.15),
    ("COCCOC(=O)N1C(=O)[C@@]2(c3cc(C#CC4=CCCCC4)ccc31)[C@H](c1ccc(O)cc1)N1[C@H](c3ccccc3)[C@H](c3ccccc3)OC(=O)[C@H]1[C@@H]2C(=O)Nc1nc2ccccc2s1", -1.94),
    ("CCOC(=O)C[C@H]1[C@H](OC(=O)c2ccccc2-c2ccccc2)[C@@H](NC(=O)CC(C)C)c2cc(OCCCO)ccc2N1C(=O)c1ccc2ccccc2n1", 0.488),
    ("COC(=O)[C@H](Cc1ccccc1)N1CC(/C=C/C2CC2)=C[C@@H]1[C@@H](O)Cc1ccccc1", 0.33),
]
